# Tgt: ERα (Homo sapiens, UniProt P03372)
# Construct: HeLa cells transiently expressing the full-length ERα or ERβ
# Sequence (P03372 whole entry): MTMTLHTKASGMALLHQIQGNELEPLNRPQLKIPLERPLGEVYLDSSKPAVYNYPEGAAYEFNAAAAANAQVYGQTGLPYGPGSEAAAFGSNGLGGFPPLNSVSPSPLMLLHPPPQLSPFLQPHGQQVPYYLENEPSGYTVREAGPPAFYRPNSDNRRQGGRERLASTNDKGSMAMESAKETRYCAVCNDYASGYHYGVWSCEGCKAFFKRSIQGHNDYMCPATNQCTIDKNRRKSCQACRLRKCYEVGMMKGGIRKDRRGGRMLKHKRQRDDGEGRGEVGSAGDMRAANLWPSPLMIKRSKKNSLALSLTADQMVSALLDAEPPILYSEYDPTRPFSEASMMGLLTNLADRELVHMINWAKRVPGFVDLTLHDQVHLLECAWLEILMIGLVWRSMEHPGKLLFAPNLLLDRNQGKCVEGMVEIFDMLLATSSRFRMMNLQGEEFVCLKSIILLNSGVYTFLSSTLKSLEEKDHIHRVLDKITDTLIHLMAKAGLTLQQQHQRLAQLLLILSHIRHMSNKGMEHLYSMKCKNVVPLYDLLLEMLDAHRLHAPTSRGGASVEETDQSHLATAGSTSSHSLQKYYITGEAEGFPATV
# Test name: Luciferase reporter gene assay for transcription activation activity, ERα, HeLa cells
# Assay conditions: HeLa cells transiently expressing full-length ERα; read-out: Transcriptional activation activity EC50 ERα

Substance smiles: Oc1ccc(C(=C(Cl)Cl)c2ccc(O)cc2)cc1
EC50: 2.2 nM
